- System: gastric mucosa of rats
- run description: gastric ulcerogenic effect (Meshali's method, ulcer index by Robert's method)
- Assay type: in vivo, rat
- condition label: oral 10 mg/kg on three days
parameter measured: Average No. of ulcer

# molecule, Average No. of ulcer
rows = [
    ("Cc1nc2c(cnn2-c2ccccc2)c(=O)n1N=c1scc(-c2ccccc2)n1-c1ccc(Cl)cc1 [Compound 11d]", 1.0),
    ("COc1ccc2c(c1)c(CC(=O)O)c(C)n2C(=O)c1ccc(Cl)cc1 [Indomethacin, reference compound]", 4.4),
    ("Cc1nc2c(cnn2-c2ccccc2)c(=O)n1N=c1scc(-c2ccc(Cl)cc2)n1-c1ccc(Cl)cc1 [Compound 11f]", 1.6),
    ("Cc1nc2c(cnn2-c2ccccc2)c(=O)n1N=c1scc(-c2ccc(Cl)cc2)n1-c1ccccc1 [Compound 11c]", 1.6),
    ("Cc1nc2c(cnn2-c2ccccc2)c(=O)n1N=c1scc(-c2ccc(Br)cc2)n1-c1ccc(Cl)cc1 [Compound 11e]", 0.8),
]

Average No. of ulcer measured on Cc1nc2c(cnn2-c2ccccc2)c(=O)n1N=c1scc(-c2ccc(Br)cc2)n1-c1ccccc1 [Compound 11b] = 1.2

According to the records, this molecule Cc1nc2c(cnn2-c2ccccc2)c(=O)n1N=c1scc(-c2ccccc2)n1-c1ccccc1 [Compound 11a] displays Average No. of ulcer of 1.6

For this molecule ( Cc1nc2c(cnn2-c2ccccc2)c(=O)n1N=C1SCC(=O)N1c1ccc(Cl)cc1 [Compound 10b] ), measured Average No. of ulcer is 0.8

---

- System: gastric mucosa of rats
- run description: gastric ulcerogenic effect (Meshali's method, ulcer index by Robert's method)
- Format: in vivo, rat
- condition label: oral 10 mg/kg on three days, score 0 to 4
Reported Average severity is given for each of the following compounds.
Just the number, please, no unit attached.

# compound, assayed target, Average severity
rows = [
    ("COc1ccc2c(c1)c(CC(=O)O)c(C)n2C(=O)c1ccc(Cl)cc1 [Indomethacin, reference compound]", "gastric mucosa of rats", 2.86),
    ("Cc1nc2c(cnn2-c2ccccc2)c(=O)n1N=c1scc(-c2ccc(Br)cc2)n1-c1ccc(Cl)cc1 [Compound 11e]", "gastric mucosa of rats", 1.75),
    ("Cc1nc2c(cnn2-c2ccccc2)c(=O)n1N=c1scc(-c2ccc(Cl)cc2)n1-c1ccc(Cl)cc1 [Compound 11f]", "gastric mucosa of rats", 1.5),
    ("Cc1nc2c(cnn2-c2ccccc2)c(=O)n1N=c1scc(-c2ccccc2)n1-c1ccccc1 [Compound 11a]", "gastric mucosa of rats", 1.38),
]

// Average severity lookup, compound = Cc1nc2c(cnn2-c2ccccc2)c(=O)n1N=C1SCC(=O)N1c1ccc(Cl)cc1 [Compound 10b] , result: 1.25

What the record says about Cc1nc2c(cnn2-c2ccccc2)c(=O)n1N=c1scc(-c2ccc(Cl)cc2)n1-c1ccccc1 [Compound 11c] : Average severity is 1.63

// sample Cc1nc2c(cnn2-c2ccccc2)c(=O)n1N=c1scc(-c2ccc(Br)cc2)n1-c1ccccc1 [Compound 11b] , its Average severity was 1.33

Measured Average severity of Cc1nc2c(cnn2-c2ccccc2)c(=O)n1N=c1scc(-c2ccccc2)n1-c1ccc(Cl)cc1 [Compound 11d] : 1.20

---

# maps each entry to its % ulceration in the population of test animals
- Tested on: gastric mucosa of rats
- run description: gastric ulcerogenic effect (Meshali's method, ulcer index by Robert's method)
- Assay type: in vivo, rat
- condition label: oral 10 mg/kg
# number only, unit % dropped from output

# molecule, assayed target, experimental value
records = [
    ("Cc1nc2c(cnn2-c2ccccc2)c(=O)n1N=c1scc(-c2ccccc2)n1-c1ccc(Cl)cc1 [Compound 11d]", "gastric mucosa of rats", 80),
]

Kindly review the next molecule as well.
% ulceration in the population of test animals in this record for COc1ccc2c(c1)c(CC(=O)O)c(C)n2C(=O)c1ccc(Cl)cc1 [Indomethacin, reference compound] : 100
